All figures here come from PubChem BioAssay (NCATS).

Molecular target: Guanine nucleotide-binding protein G(i) subunit alpha-1 (Homo sapiens) (UniProt P63096)
Sequence (P63096 whole entry, looked up): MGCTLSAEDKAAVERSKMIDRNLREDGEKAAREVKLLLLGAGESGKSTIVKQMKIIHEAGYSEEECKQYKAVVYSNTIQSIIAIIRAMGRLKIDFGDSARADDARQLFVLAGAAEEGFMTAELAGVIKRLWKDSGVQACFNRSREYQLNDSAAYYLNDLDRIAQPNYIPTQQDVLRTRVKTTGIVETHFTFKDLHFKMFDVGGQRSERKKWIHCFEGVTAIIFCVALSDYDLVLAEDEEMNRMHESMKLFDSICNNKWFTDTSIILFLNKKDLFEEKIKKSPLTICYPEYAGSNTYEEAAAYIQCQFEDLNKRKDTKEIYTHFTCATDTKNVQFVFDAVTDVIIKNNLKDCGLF
Assay: qHTS Assay for Inhibitors of RGS12 GoLoco Motif Activity (Green Fluorophore) (AID 879)
Settings: Galphai1/FITC-RGS12 GoLoco peptide, fluorescence polarization; series mostly up to 57.1 µM
Active and inactive are the calls of the source. Calls come from the whole dose curve; as a rule, active = well fitted curve in the direction sought with a large enough effect; inconclusive = small, poorly fitted or top-dose-only effect, or another doubt; inactive = no such curve, though single readings can be large or run the other way.
Returns: one label drawn from label 1 for active, label 0 for inactive

Please review the following examples before continuing.
compound=Cn1c(=O)c2[nH]cnc2n(C)c1=O label_value="label 0"
compound="Clc1ccc(C(c2ccccc2Cl)C(Cl)Cl)cc1 (configuration not stated)" label_value="label 0"
compound=CC(C)C(=O)Nc1ccc([N+](=O)[O-])c(C(F)(F)F)c1 label_value="label 0"
compound=O=c1c(-c2ccc(O)cc2)coc2cc(O)cc(O)c12 label_value="label 0"
compound=Clc1ccc2c(c1)C(N1CCNCC1)=Nc1ccccc1O2 label_value="label 0"
compound=NCCS(=O)(=O)O label_value="label 0"
compound=O=C(c1ccc(F)cc1)C1CCN(CCn2c(=O)[nH]c3ccccc3c2=O)CC1 label_value="label 0"
compound=CN1CCN(C2=Nc3cc(Cl)ccc3Nc3ccccc32)CC1 label_value="label 0"

// query Outcome? CN1CCC(=C2c3ccccc3CC(=O)c3sccc32)CC1
// result label 0

// query Outcome? CCOC(=O)C(C)(C)Oc1ccc(Cl)cc1
// result label 0

// query Can you look up the reported call for Cn1cnc2c1c(=O)[nH]c(=O)n2C for me?
// result label 0

// query Each compound tested received a call. Report the one for OCCN(CCO)c1nc(N2CCCCC2)c2nc(N(CCO)CCO)nc(N3CCCCC3)c2n1 .
// result label 1

###

Assay: qHTS of pediatric cancer cell lines to identify multiple opportunities for drug repurposing: Primary screen for SK-N-MC cells (AID 1347093)
Settings: SK-N-MC viability, CellTiter-Glo luminescence, 48 h; series mostly up to 46 µM
Inconclusive results are not listed. Activity calls are given as the source filed them. Calls come from the whole dose curve; as a rule, active = well fitted cell-killing curve with a large enough effect; inconclusive = small, poorly fitted or top-dose-only effect; inactive = no such curve, though single readings can be large or run the other way.
Pick from active, inactive when you respond.

Past entries and their recorded results:
compound="Clc1ccc(C(c2ccccc2Cl)C(Cl)Cl)cc1 (configuration not stated)" label_value=active
compound=O=C(c1ccc(F)cc1)C1CCN(CCn2c(=O)[nH]c3ccccc3c2=O)CC1 label_value=inactive
compound=NS(=O)(=O)c1cc2c(cc1Cl)NCNS2(=O)=O label_value=inactive
compound=O=c1c(-c2ccc(O)cc2)coc2cc(O)cc(O)c12 label_value=inactive
compound="COc1cc2nc(N3CCN(C(=O)C4COc5ccccc5O4)CC3)nc(N)c2cc1OC (configuration not stated)" label_value=active
compound=COc1ccc2c(c1)c(CC(=O)O)c(C)n2C(=O)c1ccc(Cl)cc1 label_value=active
compound=CS(=O)(=O)Nc1ccc([N+](=O)[O-])cc1Oc1ccccc1 label_value=active
compound=CN(C)C(=O)C(CCN1CCC(O)(c2ccc(Cl)cc2)CC1)(c1ccccc1)c1ccccc1 label_value=active
compound="CN1C2CCC1CC(OC(=O)C(CO)c1ccccc1)C2 (configuration not stated)" label_value=inactive
compound="CC(C)NCC(O)c1ccc(O)c(O)c1 (configuration not stated)" label_value=active

Here's the next entry for you.
// query Assay result, entry CCC1(C)CC(=O)NC1=O (configuration not stated) — outcome?
// result inactive

###

Assay: Cell Viability - HepG2 (AID 433);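 note: cells exposed to compound for 40 hours; potency for ATP loss meaning cytotoxicity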
Settings: qHTS
Results filed as inconclusive are left out. Calls of active or inactive are those of the source. Calls follow the shape of the full dose curve.
Outcome field: choose from true = active, false = inactive

// below: answered compounds
compound=CCC1(c2ccccc2)C(=O)NCNC1=O label_value=false
compound=Cc1cn([C@H]2C=C[C@@H](CO)O2)c(=O)[nH]c1=O label_value=false
compound=NS(=O)(=O)c1cc2c(cc1Cl)NCNS2(=O)=O label_value=false

// query What call does the record list for Cc1ccc(-c2cc(C(F)(F)F)nn2-c2ccc(S(N)(=O)=O)cc2)cc1 ?
// result false

// query GET /call?item= Nc1c2c(nc3ccccc13)CCCC2 returns the recorded outcome of this test.
// result false

// query Hi, sorry to bother you, what did the test record for CC(C)C(=O)Nc1ccc([N+](=O)[O-])c(C(F)(F)F)c1 ?
// result false

// query // outcome(item) with item = Cc1cn([C@H]2C[C@H](N=[N+]=[N-])[C@@H](CO)O2)c(=O)[nH]c1=O
// result false

// query Identify the outcome logged in this assay for the compound shown: Nc1ccn([C@H]2CC[C@@H](CO)O2)c(=O)n1
// result false

// query Recorded test outcome, item CC(COc1ccccc1)N(CCCl)Cc1ccccc1 (stereo not given)
// result true

// query Fill in: this test's call for NCCS(=O)(=O)O is ___
// result false
